- Tested on: MDA-MB-231 breast
- Test summary: NCI-60 one-dose screen, 48 h (100 = growth as untreated, 0 = no growth, -100 = all killed)
- Experimental parameters: 10 µM unless noted
The panel holds about 83,000 compounds, 20% with a hit somewhere; the sample as a whole holds those more often.
The label is t for growth below 90% and f for growth equal to or exceeding 90%.

Request: I wonder whether `COC(=O)c1cc(C(=O)OC)cc([N+](=O)[O-])c1` has growth below 90%. Can you tell?
Result: f

Request: I wonder whether `N#Cc1ccc(/C=C/C(=O)c2ccccc2)cc1` has growth below 90%. Can you tell?
Result: f

Request: I wonder whether C#CCOC(=O)C(N)CS (configuration not stated) has growth below 90%. Can you tell?
Result: t

Request: I wonder whether `CC(=O)c1cc2ccccc2o1` has growth below 90%. Can you tell?
Result: f

Request: I wonder whether `COc1ccc(/C=N/Nc2nc3ccccc3s2)cc1` has growth below 90%. Can you tell?
Result: t

Request: I wonder whether `O=c1[nH]c(=S)[nH]n1C(=S)n1[nH]c(=S)[nH]c1=O` has growth below 90%. Can you tell?
Result: f

----------
- System: NCI-H226 lung
- Test summary: NCI-60 one-dose screen, 48 h (100 = growth as untreated, 0 = no growth, -100 = all killed)
- Experimental parameters: 10 µM unless noted
Compounds without any hit were thinned out: in the full panel of roughly 83,000, 20% have a hit. Calls of active or inactive are those of the source. How the source made its calls: active means growth percent below 10; inactive means the rest.
Measured parameter: growth

Request: Item `COc1ccc2nccc(Cl)c2c1` with NCI-H226 lung - growth?
Result: 85.1% (inactive)

Request: Item `CCOCCC(=O)O` with NCI-H226 lung - growth?
Result: 99.4% (inactive)

Request: Item `CCOP(=O)(OCC)/C(C#N)=C/c1c(C)[nH]c2ccccc12` with NCI-H226 lung - growth?
Result: 84% (inactive)

Request: Item `Cc1c(Cl)c(C)c(Cc2c(C)c(Cl)c(C)c(Cl)c2O)c(O)c1Cl` with NCI-H226 lung - growth?
Result: 15.7% (inactive)

Request: Item `Nc1c(Cl)cc2c(c1Br)C(=O)c1ccccc1C2=O` with NCI-H226 lung - growth?
Result: 99.5% (inactive)

Request: Item `C=CCN1C(=O)c2ccccc2C1=O` with NCI-H226 lung - growth?
Result: 101% (inactive)

Request: Item `CCCCCCCCCCCCCCCCC(=O)O` with NCI-H226 lung - growth?
Result: 101% (inactive)

Request: Item `CCc1ccccc1-n1[nH]c(C)c(C=N)c1=O` with NCI-H226 lung - growth?
Result: 89% (inactive)

Request: Item `CN(C=O)c1ccccc1` with NCI-H226 lung - growth?
Result: 75.3% (inactive)

Request: Item `O=COCCCc1ccccc1` with NCI-H226 lung - growth?
Result: 95.4% (inactive)

Request: Item CN1C2C=CC(=O)C1C1C(=O)N(c3ccccc3)C(=O)C12 (stereo not given) with NCI-H226 lung - growth?
Result: 105% (inactive)

Request: Item `CCCCC/C(C)=N\NC(N)=S` with NCI-H226 lung - growth?
Result: 86% (inactive)

Request: Item CC(O)CCNC(c1ccccc1)C(O)c1ccccc1 (stereo not given) with NCI-H226 lung - growth?
Result: 111% (inactive)

Request: Item `Cc1cnc(N)s1` with NCI-H226 lung - growth?
Result: 90.6% (inactive)

Request: Item `CSc1nc(N)c(N)c(N)n1` with NCI-H226 lung - growth?
Result: 91.9% (inactive)

Request: Item `CC(=O)C[n+]1ccccc1Sc1ccc(Cl)cc1` with NCI-H226 lung - growth?
Result: 91.1% (inactive)

Request: Item CCOC(=O)c1ccc(N2C(=O)C(Cl)(c3ccccc3)C2c2ccco2)cc1 (stereo not given) with NCI-H226 lung - growth?
Result: 81.1% (inactive)

Request: Item `N#CC(=S)Nc1ccc(Cl)c(Cl)c1` with NCI-H226 lung - growth?
Result: 9.29% (active)

Request: Item `CCOC(=N)c1ccc(C(=N)OCC)cc1` with NCI-H226 lung - growth?
Result: 100% (inactive)

Request: Item COc1cc(C2c3cc4c(cc3C(OC(=O)C[n+]3ccccc3)C3COC(=O)C23)OCO4)cc(OC)c1OC (stereo not given) with NCI-H226 lung - growth?
Result: 22.5% (inactive)

Request: Item `CCCC(=O)OCC(COC(=O)CCC)OC(=O)CCC` with NCI-H226 lung - growth?
Result: 94.5% (inactive)

Request: Item CC1CC(O)CC(C)(C)C1.CC1CC(O)CC(C)(C)C1.CC1CC(O)CC(C)(C)C1.CC1CC(O)CC(C)(C)C1.[Ti] (stereo not given) with NCI-H226 lung - growth?
Result: 97.2% (inactive)

Request: Item `CC(=O)Nc1cscc1NC(C)=O` with NCI-H226 lung - growth?
Result: 96.8% (inactive)

Request: Item `COc1ccc(CCN=Cc2ccc(Cl)cc2)cc1OC` with NCI-H226 lung - growth?
Result: 112% (inactive)

Request: Item O=C1C2=C(Nc3cc(Cl)ccc3N2)OC1c1c[nH]c2ccc(COc3ccccc3)cc12 (stereo not given) with NCI-H226 lung - growth?
Result: 2.7% (active)

Request: Item CC1NC(C)c2ccc3ccccc3c2O1 (stereo not given) with NCI-H226 lung - growth?
Result: 102% (inactive)

Request: Item `CCN(CC)C(=S)SCCO` with NCI-H226 lung - growth?
Result: 99.3% (inactive)

Request: Item `CC(=O)c1cccc(OC(=O)c2ccccc2)c1` with NCI-H226 lung - growth?
Result: 101% (inactive)

Request: Item `CC(C)(C)OC(=O)CC1(O)CCCCC1` with NCI-H226 lung - growth?
Result: 93.7% (inactive)

Request: Item OC1CCCN(Cc2ccccc2)C1 (stereo not given) with NCI-H226 lung - growth?
Result: 106% (inactive)

Request: Item `O=C(c1ccncc1)c1c(Cc2ccccc2)ccc2ccccc12` with NCI-H226 lung - growth?
Result: 82.5% (inactive)

Request: Item `CC1(C)CC(=O)NC1=O` with NCI-H226 lung - growth?
Result: 99.6% (inactive)

Request: Item `COc1ccc(/C=N/NC(N)=S)cc1` with NCI-H226 lung - growth?
Result: 105% (inactive)

Request: Item O=C(c1ccc(Cl)cc1)C1C(c2ccccc2)C1[N+](=O)[O-] (stereo not given) with NCI-H226 lung - growth?
Result: 97.2% (inactive)

Request: Item Nc1ccccc1SC1CC(=O)N(c2ccc(I)cc2)C1=O (stereo not given) with NCI-H226 lung - growth?
Result: 102% (inactive)

Request: Item `CCOC(=O)c1ccncc1` with NCI-H226 lung - growth?
Result: 91.3% (inactive)

Request: Item `CCN(C)c1ccccc1` with NCI-H226 lung - growth?
Result: 95.7% (inactive)

Request: Item `COC(=O)CCOc1ccccc1` with NCI-H226 lung - growth?
Result: 105% (inactive)

Request: Item `O=C(O)c1ccc2c3ccc(C(=O)O)c4c(C(=O)O)ccc(c5ccc(C(=O)O)c1c25)c43` with NCI-H226 lung - growth?
Result: 92.2% (inactive)

Request: Item `Cc1cc(=NO)cc(C)n1O` with NCI-H226 lung - growth?
Result: 114% (inactive)

Request: Item `Cc1ccc(N)cc1S(=O)(=O)O` with NCI-H226 lung - growth?
Result: 109% (inactive)

Request: Item O=C1C=CC(n2cc(F)c(=O)[nH]c2=O)O1 (stereo not given) with NCI-H226 lung - growth?
Result: 86% (inactive)

Request: Item `O=C(O)COc1ccccc1F` with NCI-H226 lung - growth?
Result: 94.2% (inactive)

Request: Item `CC1=CC(=O)c2cccc(NC3=NCCO3)c21` with NCI-H226 lung - growth?
Result: 94.2% (inactive)

Request: Item `C/C=C/C(=O)OCCCCCCCCCCCC` with NCI-H226 lung - growth?
Result: 87.3% (inactive)

Request: Item C#CCOC(=O)C(N)CS (stereo not given) with NCI-H226 lung - growth?
Result: 99.9% (inactive)

Request: Item `CC(C)(C)OC(=O)NCCc1ccc(N)cc1` with NCI-H226 lung - growth?
Result: 94.9% (inactive)

Request: Item `Cc1cccc(Cl)c1N` with NCI-H226 lung - growth?
Result: 118% (inactive)

Request: Item CC(C)(C)C1CCC(=NO)CC1 (stereo not given) with NCI-H226 lung - growth?
Result: 99.9% (inactive)

Request: Item `Cc1nc(Nc2ccc(Cl)cc2)c2cnn(-c3ccccc3)c2n1` with NCI-H226 lung - growth?
Result: 96.6% (inactive)

Request: Item `Cc1cc(Cl)nc(Nc2ccccc2)n1` with NCI-H226 lung - growth?
Result: 91.2% (inactive)

Request: Item `O=c1[nH]c(=S)[nH]n1C(=S)n1[nH]c(=S)[nH]c1=O` with NCI-H226 lung - growth?
Result: 85% (inactive)

Request: Item `C/C(CC(C)C)=N/NC(N)=S` with NCI-H226 lung - growth?
Result: 85.8% (inactive)

Request: Item `O=[N+]([O-])c1ccc(N/N=C/C2CCCCCC2)c([N+](=O)[O-])c1` with NCI-H226 lung - growth?
Result: 101% (inactive)

Request: Item COc1cc2oc3cc(=O)cc4oc(-c5ccccc5)cc(c2c2c1CCC(c1ccccc1)O2)c43 (stereo not given) with NCI-H226 lung - growth?
Result: 64.4% (inactive)
